test system: HDAC (total HDAC activity, HCT116 cell lysates); experiment: HDAC activity colorimetric assay in HCT116 cell lysates; assay type: biochemical, human; conditions: 0–20 µM, read-out: IC50 on HDAC-dependent catalytic activity
pIC50: −log10 of the molar value.

# Compound Structure String, System Name, pIC50
rows = [
    ("Cl.O=C(/C=C/c1ccc(CN2CCC(O)(c3ccc(Cl)cc3)CC2)cc1)NO", "HDAC (total HDAC activity, HCT116 cell lysates)", 7.84),
]

---

System: WS1 cells
Assay: Cell proliferation, normal WS1 fibroblasts
Format: cell-based
Details: Homo sapiens; WS1 (Normal Skin Fibroblast); 48 h; mean ± SD; read-out: Antiproliferative IC50
Protocol: Cells were seeded in 96-well plates at a cell-specific density, following quantification of cell numbers on counting chambers after trypsinization and staining with trypan blue. […] Finally, for crystal violet assays, 100 μL of 10% acetic acid was added to each well, and the absorbance (λ = 590 nm) was measured with a Synergy HTX Bioteck spectrophotometer (BioSPX, Beersel, Belgium). […]
pIC50: −log10 of the molar value.
Experimental Readout: pIC50

# Compound Structure String, Recorded Measurement
rows = [
    ("Cl.O=C(/C=C/c1ccc(CN2CCC(O)(c3ccc(Cl)cc3)CC2)cc1)NO", 5.93),
]

---

Test system: MRC-5 cells
Assay: Cell proliferation, normal MRC-5 fibroblasts
Type: cell-based
Settings: Homo sapiens, MRC5; MRC-5 (Normal Lung Fibroblast); 48 h; mean ± SD; read-out: Antiproliferative IC50
Method: Cells were seeded in 96-well plates at a cell-specific density, following quantification of cell numbers on counting chambers after trypsinization and staining with trypan blue. […] Finally, for crystal violet assays, 100 μL of 10% acetic acid was added to each well, and the absorbance (λ = 590 nm) was measured with a Synergy HTX Bioteck spectrophotometer (BioSPX, Beersel, Belgium). […]

# Compound, IC50 (nM)
measured = [
    ("Cl.O=C(/C=C/c1ccc(CN2CCC(O)(c3ccc(Cl)cc3)CC2)cc1)NO [5c]", 157),
]

Data provenance is paper PMC11859726.
